- Test system: MS2 coat protein
- Procedure Summary: apparent KD of MS2 coat protein; designed switch direction (-1 OFF switch, 1 ON switch): -1; higher = weaker reporter binding
- Reported Conditions: input ligand: microRNA oligo, concentration not stated
Assign MET to entries whose apparent KD of MS2 coat protein meets or exceeds 40 nM; assign NOT MET to the rest.

| Residue Sequence | Assigned Label |
| --- | --- |
| CAUGAUUGGGAAGGAUAUUGACCUAGUUAGCGCCGAGAAGGUCCCUGUCACAUGAGGAUCACCCAUGUGAAUCUGGUGAAAGAG [Ex NG1 #93] (Eterna round: R96, puzzle: Exclusion NG 1) | NOT MET |
| UGUGGACAUGAGGAUCACCCAUGUCAGCCGUGUCCACCGAGAGAGGAUAUUGGUCAACCAGGGACUAAGAAGGCUCAGAGCUGG [Eternabot solution 47] (Eterna round: R96, puzzle: Exclusion NG 3) | NOT MET |
| CGAUAAAUGACAGGAUAUUACGCUAAUUGGGACCCUUAACCGACAUGAGGAUCACCCAUGUUUUAUAAGAAGGGUCGUUUGUCA [Eternabot solution 47] (Eterna round: R96, puzzle: Exclusion NG 2) | NOT MET |
| UGGAUAAUUGGAGGAUAUGCGACAUAAACCAUUGUAGAAGGCCAACAUGAGGAUCACCCAUGUGUCCCAGAGACCACAGAUCCA [Eternabot solution 9] (Eterna round: R96, puzzle: Exclusion NG 1) | NOT MET |
| UGAAAAGACCUAGGAUAUACCCAGUGGGUAGAGGGUCAGAAUAAUAAAACAUGAGGAUCACCCAUGUAGAAGGAGGGAAAGAAG [Laerxe] (Eterna round: R96, puzzle: Exclusion NG 2) | MET |
| AAACAAGCUCGGGUGAGGGAGACCACAGAAGGACCCAAAACAUGAGGAUCACCCAUGUCAAGAGUAGAGCUUGGCAU [high scoring solution 31] (Eterna round: R96, puzzle: Sensor v2, turn-off variant 2) | MET |
